test_summary: Solubility in fasted-state simulated colonic fluid (FaSSCoF)
Format: physicochemical
test_conditions: 25 °C, pH 6.5, fassgf or other biorelevant, thermodynamic from solid, pH 6.5, 25° C., Run 2, read-out: pH 6.5 FaSSCoF Solubility Run 2
experimental_endpoint: solubility thermodynamic at 24 h (µg/mL)
Field: numeric (µg/mL). Do not append units.

A selection of reference data follows.
COc1cc(Nc2cc(Oc3ccc(NC(=O)Nc4cc(C(C)(C)C)cc(CC(N)=O)c4OC)c4ccccc34)ccn2)ccc1C(=O)NCC(CO)(CO)CO ... 16.6
COCCOCCOCCNC(=O)c1cc(Nc2cc(Oc3ccc(NC(=O)Nc4cc(C(C)(C)C)cc(CNC(=O)CN(C)C)c4OC)c4ccccc34)ccn2)cc(OC)c1 ... 13
COc1cc(Nc2cc(Oc3ccc(NC(=O)Nc4cc(C(C)(C)C)cc([S+](C)[O-])c4OC)c4ccccc34)ccn2)ccc1C(=O)NCCN1CCOCC1 (stereo not shown) ... 11.2

Request: Input COc1cc(Nc2cc(Oc3ccc(NC(=O)Nc4cc(C(C)(C)C)cc([S+](C)[O-])c4OC)c4ccccc34)ccn2)cc(C(=O)NCCN2CCN(C)CC2)c1 (stereo not shown) , output reported solubility thermodynamic at 24 h.
Result: 16

###

assay_system: p38 MAPK α (Homo sapiens (Human), UniProt Q16539)
Sequence (Q16539 whole entry): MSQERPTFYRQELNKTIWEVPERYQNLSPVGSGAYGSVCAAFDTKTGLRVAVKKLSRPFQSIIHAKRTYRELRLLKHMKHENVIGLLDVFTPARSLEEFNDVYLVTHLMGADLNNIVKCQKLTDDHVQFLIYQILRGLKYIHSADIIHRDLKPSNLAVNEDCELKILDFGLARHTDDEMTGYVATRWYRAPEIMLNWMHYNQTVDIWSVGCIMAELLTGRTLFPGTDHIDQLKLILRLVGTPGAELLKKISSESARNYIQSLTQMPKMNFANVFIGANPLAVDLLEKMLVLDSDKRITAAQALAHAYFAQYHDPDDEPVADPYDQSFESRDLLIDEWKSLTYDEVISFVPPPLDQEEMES
experimental_endpoint: Kd (nM)
Field: numeric (nM). Do not append units.

Request: For p38 MAPK α (Homo sapiens (Human), UniProt Q16539), give the measured Kd of the entry COc1cc(Nc2cc(Oc3ccc(NC(=O)Nc4cc(C(C)(C)C)cc(P(C)(C)=O)c4OC)c4ccccc34)ccn2)cc(C(N)=O)c1
Result: 4.5

###

System: PBMCs
test_summary: LPS-induced IL-8 release in PBMC cells (assay b)
Type: cell-based, human
test_conditions: Homo sapiens, PBMC; LPS-stimulated PBMCs; read-out: IC50 Values for Inhibition of Cytokine Release, PBMCs IL-8
experimental_endpoint: IC50 (nM)
Field: numeric (nM). Do not append units.

COCCOCCOCCNC(=O)c1cc(Nc2cc(Oc3ccc(NC(=O)Nc4cc(C(C)(C)C)cc(CC(N)=O)c4OC)c(Cl)c3Cl)ccn2)cc(OC)c1 ... 0.6
COc1c(NC(=O)Nc2ccc(Oc3ccnc(NCc4ccccn4)c3)c3ccccc23)cc(C(C)(C)C)cc1[S+](C)[O-] (stereo not drawn) ... 4.3
COCCOCCOCCOc1cc(Nc2cc(Oc3ccc(NC(=O)Nc4cc(C(C)(C)C)cc(S(C)(=O)=O)c4OC)c4ccccc34)ccn2)cc(OC)c1 ... 3.5
COc1c(CP(C)(C)=O)cc(C(C)(C)C)cc1NC(=O)Nc1ccc(Oc2ccnc(Nc3ccccc3)c2)c2ccccc12 ... 3.1
COCCOCCOCCNC(=O)c1cc(Nc2cc(Oc3ccc(NC(=O)Nc4cc(C(C)(C)C)cc(C[S+](C)[O-])c4OC)c4ccccc34)ccn2)cc(OC)c1 (stereo not drawn) [38(z)] ... 0.6

Request: Input COc1c(NC(=O)Nc2ccc(Oc3ccnc(N(C)C)n3)c3ccccc23)cc(C(C)(C)C)cc1P(C)(C)=O , output reported IC50.
Result: 26

###

In what follows, each item is paired with its IC50 for c-Src (Homo sapiens (Human)).
Field: numeric (nM). Do not append units.

A selection of reference data follows.
COCCOCCOCCOc1cc(Nc2cc(Oc3ccc(NC(=O)Nc4cc(C(C)(C)C)cc(P(C)(C)=O)c4)c4ccccc34)ccn2)cc(OC)c1 ... 16
COc1c(NC(=O)Nc2ccc(Oc3ccnc(Nc4cnn(C)n4)n3)c3ccccc23)cc(C(C)(C)C)cc1P(C)(C)=O ... 356
COc1cncc(Nc2cc(Oc3ccc(NC(=O)Nc4cc(C(C)(C)C)cc(P(C)(C)=O)c4OC)c4ccccc34)ccn2)c1 ... 43
COc1cc(CO)cc(Nc2cc(Oc3ccc(NC(=O)Nc4cc(C(C)(C)C)cc(P(C)(C)=O)c4OC)c4ccccc34)ccn2)c1 ... 12
COCCOCCOCCNC(=O)c1cc(Nc2cc(Oc3ccc(NC(=O)Nc4cc(C(C)(C)C)cc(S(C)(=O)=O)c4OC)c4ccccc34)ccn2)cc(OC)c1 ... 61
COc1c(NC(=O)Nc2ccc(Oc3ccnc(Nc4cc(C#N)cc(OCCCN5CCOCC5)c4)c3)c3ccccc23)cc(C(C)(C)C)cc1[S+](C)[O-] (stereo not shown) [79(e)] ... 81
COc1cccc(Nc2cc(Oc3ccc(NC(=O)Nc4cc(C(C)(C)C)cc([S+](C)[O-])c4OC)c4ccccc34)ccn2)c1 (stereo not shown) ... 72
COCCOCCOCCOc1cc(Nc2cc(Oc3ccc(NC(=O)Nc4cc(C(C)(C)C)cc(C(=O)NCCN5CCOCC5)c4OC)c4ccccc34)ccn2)cc(OC)c1 ... 40
COc1c(NC(=O)Nc2ccc(Oc3ccnc(Nc4cnccn4)c3)c3ccccc23)cc(C(C)(C)C)cc1P(C)(C)=O ... 46
COc1c(NC(=O)Nc2ccc(Oc3ccnc(Nc4cnccn4)n3)c3ccccc23)cc(C(C)(C)C)cc1P(C)(C)=O ... 211

Request: For c-Src (Homo sapiens (Human)), give the measured IC50 of the entry COc1cc(Nc2cc(Oc3ccc(NC(=O)Nc4cc(C(C)(C)C)cc(CC(N)=O)c4OC)c4ccccc34)ccn2)cc(S(=O)(=O)C2CC2)c1
Result: 155

Request: For c-Src (Homo sapiens (Human)), give the measured IC50 of the entry COc1cc(Nc2cc(Oc3ccc(NC(=O)Nc4cc(C(C)(C)C)cc(CC(N)=O)c4OC)c4ccccc34)ccn2)ccc1C(=O)NCC(CO)(CO)CO
Result: 29

Request: For c-Src (Homo sapiens (Human)), give the measured IC50 of the entry COc1cc(F)cc(Nc2cc(Oc3ccc(NC(=O)Nc4cc(C(C)(C)C)cc(P(C)(C)=O)c4OC)c4ccccc34)ccn2)c1
Result: 116
